Every entry's value here was drawn from PubChem BioAssay.

So I've got a bunch of compounds here, and I need their period change values.
# protocol-text: circadian clock period modulators, cell-based, LOPAC library, luminescence reporter (AID 2774);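 note: values are relative to mean of DMSO wells on each plate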
# reported-conditions: circadian reporter cells, at 7 µM, actives lie on both sides
Active and inactive are the calls of the source. The rule behind the calls is not given here.

# input compound: "Cc1c2ccncc2c(C)c2c1[nH]c1ccccc12" ; wanted: its period change
0.09 h (inactive)

Quick one: period change for CC1OC1P(=O)(O)O (stereo not drawn) ?
-0.1 h (inactive)

Tell me the measured period change of CN1C2CCC1CC(OC(c1ccccc1)c1ccccc1N)C2 (stereo not drawn) , please.
0.055 h (inactive)

Which period change is reported for this compound? "CCN(CCCl)Cc1ccccc1Br"
-0.02 h (inactive)

Which period change is listed for NC(C(=O)O)c1cc(=O)[nH]o1 (stereo not drawn) ?
0.025 h (inactive)

# period change lookup, item COc1cc(C(O)CN)ccc1O (stereo not drawn)
-0.145 h (inactive)

Which measured period change value corresponds to "CN1C[C@H](CNC(=O)OCc2ccccc2)C[C@@H]2c3cccc4c3c(cn4C)C[C@H]21" ?
0.135 h (inactive)

Recorded period change of Nc1ncnc2c1ncn2[C@@H]1O[C@H](COP(=O)(O)CP(=O)(O)OP(=O)(O)O)[C@H](O)C1O (stereo partly drawn) , please.
0.01 h (inactive)

For the compound shown here, "C[C@]12CC[C@H](OS(=O)(=O)O)CC1=CC[C@@H]1[C@@H]2CC[C@]2(C)C(=O)CC[C@@H]12" , give the reported period change.
-0.035 h (inactive)

Consider the compound shown here: "N#CC(C#N)=Cc1ccc([N+](=O)[O-])c(O)c1" What is its recorded period change?
-0.02 h (inactive)

Consider the compound "NNC(N)=O" and give its measured period change.
-0.03 h (inactive)

So what's the measured period change for this one? "Clc1cc(I)cc(Cl)c1NC1=NCCN1"
0.11 h (inactive)

Which period change is reported for this compound? CC(Cc1ccc(OCC(=O)O)cc1)NCC(O)c1cccc(Cl)c1 (stereo not drawn)
-0.08 h (inactive)

====

# protocol-text: growth inhibition of DIPG glioma cells, dose response, cell-based, SU-DIPG-XVII, MIPE5.0, CellTiter-Glo, qHTS (AID 1347060);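 for AC50: cells exposed to compound for 48 hours before viability readout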
# reported-conditions: SU-DIPG-XVII viability, CellTiter-Glo ATP luminescence
Inconclusive results are not listed. Activity calls are given as the source filed them. Cut-off not given; nearly all actives show AC50 up to about 26 µM.
Bench note: report the call from True (active), False (inactive)

For this molecule, state the assay outcome: "CC(C)C[C@H](CN)CC(=O)O"
False

What did this assay record as the result for "C[C@@H]1CC[C@H]2[C@@H](C)C(=O)O[C@@H]3O[C@@]4(C)CC[C@@H]1[C@]32OO4" ?
False

Entry "CC1=C(O)C(=O)C=C2C1=CC=C1[C@@]2(C)CC[C@@]2(C)[C@@H]3C[C@](C)(C(=O)O)CC[C@]3(C)CC[C@]12C" : call = ?
True

Tell me the recorded outcome of this test for "CN(C)[C@@H]1C(=O)C(C(N)=O)=C(O)[C@@]2(O)C(=O)C3=C(O)c4c(O)cccc4[C@@](C)(O)[C@H]3[C@H](O)[C@@H]12" .
False

Could you kindly confirm the outcome this assay logged for "O=C1C=CC[C@@H]2[C@H]3CCCN4CCC[C@@H](CN12)[C@@H]34" ?
False

====

Field: luciferase signal. Provide a value for each of the compounds that follow.
# system-under-test: Mitogen-activated protein kinase 7 (Homo sapiens) (UniProt Q13164)
# Sequence (Q13164 whole entry, looked up, the tested form may be a part): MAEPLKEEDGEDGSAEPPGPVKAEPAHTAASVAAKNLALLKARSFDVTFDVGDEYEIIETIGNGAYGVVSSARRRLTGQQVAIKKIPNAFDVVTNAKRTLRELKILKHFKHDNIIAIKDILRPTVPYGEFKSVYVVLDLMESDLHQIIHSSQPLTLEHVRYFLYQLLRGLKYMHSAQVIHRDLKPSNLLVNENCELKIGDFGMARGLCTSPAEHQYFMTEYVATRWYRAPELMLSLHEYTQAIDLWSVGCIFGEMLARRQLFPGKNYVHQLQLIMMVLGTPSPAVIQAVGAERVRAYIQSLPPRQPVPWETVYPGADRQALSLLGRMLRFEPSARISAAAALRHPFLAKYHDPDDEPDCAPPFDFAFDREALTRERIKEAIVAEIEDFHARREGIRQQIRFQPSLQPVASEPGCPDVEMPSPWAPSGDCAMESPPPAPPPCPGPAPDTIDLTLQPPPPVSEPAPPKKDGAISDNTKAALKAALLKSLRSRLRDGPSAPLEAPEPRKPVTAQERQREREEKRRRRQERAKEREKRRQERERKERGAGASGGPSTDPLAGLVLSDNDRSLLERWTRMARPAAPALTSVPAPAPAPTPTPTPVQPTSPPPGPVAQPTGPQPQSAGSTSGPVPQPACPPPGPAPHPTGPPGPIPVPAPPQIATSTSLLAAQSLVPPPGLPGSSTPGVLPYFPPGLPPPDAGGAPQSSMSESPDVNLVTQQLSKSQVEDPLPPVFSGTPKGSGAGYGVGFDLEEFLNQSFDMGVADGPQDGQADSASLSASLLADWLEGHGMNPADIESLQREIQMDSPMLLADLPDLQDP
# protocol-text: ERK5 transactivation activators in reporter cells, primary screen, cell-based, HTS (AID 1508626);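 note: luciferase driven by Gal4-ERK5 fusion binding five Gal4 sites before minimal TATA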
# reported-conditions: HeLa Gal4-ERK5 transactivation, 18 h, at 5 µM, stronger effect = higher value
Calls of active or inactive are those of the source.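 Rule for the calls: active = luciferase signal above three times the same-plate solvent-only control wells; inactive = the rest.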

Look at this compound and give its reported luciferase signal. "N[C@@H]1C[C@H]1c1ccccc1"
36 AU (inactive)

Field request: luciferase signal | item: "COc1ccc(C(=O)N2CCCC2=O)cc1"
60 AU (inactive)

Name the recorded luciferase signal for "CC[C@H]1C(=O)OC[C@@H]1Cc1cncn1C" .
84 AU (inactive)

So what does the record say about luciferase signal for CC(=O)OCC1=C(C(=O)O)N2C(=O)[C@@H](NC(=O)CCCC(N)C(=O)O)[C@H]2SC1 (some centres not stated) ?
56 AU (inactive)

Record request: luciferase signal value, item "CN[C@@H](C)[C@@H](O)c1ccccc1"
36 AU (inactive)

Fill in the blank: the reported luciferase signal of CCCC(C)C1(CC)C(=O)N=C(S)NC1=O (configuration not stated) is ____.
60 AU (inactive)

Give the measured luciferase signal of "O=C(O)CNCP(=O)(O)O" .
40 AU (inactive)

====

# System: Aerobactin synthetase IucA (Klebsiella pneumoniae hvKP1)
# protocol-text: Biochemical IucA enzyme inhibition primary screen of the Spectrum library (AID 1346200);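 note: 100% = wells without compound and 0% = wells lacking enzyme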
# reported-conditions: malachite green pyrophosphate, A620, at 8 µM, stronger effect = lower value
Non-standard residues stand in square brackets, D forms with d. Residues, ends and D or L forms follow the SMILES beside them. Groups on a side chain read outwards from the residue. *: point of attachment. X2 = CCC(C)C(N)C1=NC(C(=O)*)CS1; Orn = NCCC[CH](N)C(=O)O
observation-type: activity remaining (%)
Respond numerically; units are % and should not be typed.

// query activity remaining value for entry "COc1c(C(C)C)oc2cc3oc(=O)ccc3cc12"
102

I am curious: what activity remaining value has been reported for Cc1cccc(CN2CCN(C(c3ccccc3)c3ccc(Cl)cc3)CC2)c1 (stereo unspecified) ?
95.5

Could you tell me which activity remaining is on file for CC1(C)C(=O)C=C[C@@]2(C)C1CC(=O)[C@]1(C)C2CC[C@@]2(C)[C@H](c3ccoc3)OC(=O)[C@H]3O[C@]321 (stereo partly specified) ?
116

# get_value(readout='activity remaining', item= CCC(C)C(N)C1=NC(C(=O)NC(CC(C)C)C(=O)NC(CCC(=O)O)C(=O)NC(C(=O)NCCCCC2NC(=O)C(CC(N)=O)NC(=O)C(CC(=O)O)NC(=O)C(Cc3cnc[nH]3)NC(=O)C(Cc3ccccc3)NC(=O)C(C(C)CC)NC(=O)C(CCCN)NC2=O)C(C)CC)CS1 (stereo not drawn) (cyclo(DNK([Ile-Glu-Leu-X2])[Orn]IFH); configuration not given here) )
123

Return reported activity remaining; argument: "O=C(O)/C=C(\CC(=O)O)C(=O)O"
89.8

Quick one: activity remaining for "S=P(N1CC1)(N1CC1)N1CC1" ?
89.8

May I ask what activity remaining has been recorded for "COc1cc(/C=C/C(=O)O)cc(OC)c1OC" ?
111

Could you share which activity remaining value was measured for "OC[C@H]1O[C@@H](O[C@H]2[C@H](O)[C@@H](O)[C@@H](O)O[C@@H]2CO)[C@H](O)[C@@H](O)[C@@H]1O" ?
107

State the recorded activity remaining for this entry: "CC(=O)Nc1ccc(O)cc1"
90

Suppose we examine the compound COc1cc([C@@H]2c3cc4c(cc3C(OC3O[C@@H]5COC(C)O[C@H]5[C@H](O)[C@H]3O)C3COC(=O)[C@@H]32)OCO4)cc(OC)c1O (stereo partly specified) ; what activity remaining value has been reported?
102

State the recorded activity remaining for this entry: "CN(C)C(=O)Nc1ccc(Cl)c(Cl)c1"
109

Looking for the measured activity remaining of "CCN(CC)Cc1ccc(Nc2ccnc3cc(Cl)ccc23)cc1O" , can you help?
102

Consider the compound shown here: CC1(C)O[C@@H]2CC3C4CCC5=CC(=O)CCC5(C)C4(F)C(O)CC3(C)[C@]2(C(=O)CCl)O1 (stereo partly specified) What is its recorded activity remaining?
93.6

Any idea what activity remaining was measured for "COc1ccc(-c2cc(=O)c3c(O)cc(O[C@@H]4O[C@H](CO[C@H]5O[C@H](C)[C@@H](O)[C@H](O)[C@@H]5O)[C@@H](O)[C@H](O)[C@H]4O)cc3o2)cc1O" ?
90.7

Look at this compound and give its reported activity remaining. "CC[C@H]1OC(=O)[C@H](C)[C@@H](O[C@H]2C[C@@](C)(OC)[C@@H](O)[C@H](C)O2)[C@H](C)[C@@H](O[C@@H]2O[C@H](C)C[C@H](N(C)C)[C@H]2O)[C@](C)(OC)C[C@@H](C)C(=O)[C@H](C)[C@@H](O)[C@]1(C)O"
119

// query activity remaining value for entry "CCNc1nc(Cl)nc(NC(C)C)n1"
97.8

====

# protocol-text: differential killing of epithelial or mesenchymal cells, primary screen, imaging, PC-3E GFP, TEM4-18 mCherry, co-culture (AID 1345086);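 note: cells exposed to compound for 72 h before imaging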
# reported-conditions: imaging cell counts, measured here: mesenchymal TEM4-18 mCherry cell survival, at 1 µM
For each entry below, report its normalised cell number value.
Just the number, please, no unit attached.

What value of normalised cell number has been recorded for this entry: "CC1=C2[C@H]3OC(=O)[C@@H](C)[C@@H]3CC[C@@]2(C)C=CC1=O"
1.07

Reported normalised cell number, molecule "O=C(O)CCCOc1ccc(Cl)cc1Cl" : ____
1.05

Need normalised cell number of "c1ccc2c(c1)sc1ccccc12" , thanks.
1.35

Data request, read-out normalised cell number, for C#CC1(O)CCC2C3CCC4=CC(=O)CCC4(C)C3CCC21C (stereo unspecified)
0.93

Name the recorded normalised cell number for COc1ccc(C(CN(C)C)C2(O)CCCCC2)cc1 (stereo unspecified) .
1.26

Give its normalised cell number value. Item: "c1ccc2c(c1)cc1ccc3cccc4ccc2c1c34"
1.05
